# TARGET OR SYSTEM: Integrin alpha-4/beta-1 (Homo sapiens, UniProt P05556+P13612)
# Sequence (P05556 whole entry): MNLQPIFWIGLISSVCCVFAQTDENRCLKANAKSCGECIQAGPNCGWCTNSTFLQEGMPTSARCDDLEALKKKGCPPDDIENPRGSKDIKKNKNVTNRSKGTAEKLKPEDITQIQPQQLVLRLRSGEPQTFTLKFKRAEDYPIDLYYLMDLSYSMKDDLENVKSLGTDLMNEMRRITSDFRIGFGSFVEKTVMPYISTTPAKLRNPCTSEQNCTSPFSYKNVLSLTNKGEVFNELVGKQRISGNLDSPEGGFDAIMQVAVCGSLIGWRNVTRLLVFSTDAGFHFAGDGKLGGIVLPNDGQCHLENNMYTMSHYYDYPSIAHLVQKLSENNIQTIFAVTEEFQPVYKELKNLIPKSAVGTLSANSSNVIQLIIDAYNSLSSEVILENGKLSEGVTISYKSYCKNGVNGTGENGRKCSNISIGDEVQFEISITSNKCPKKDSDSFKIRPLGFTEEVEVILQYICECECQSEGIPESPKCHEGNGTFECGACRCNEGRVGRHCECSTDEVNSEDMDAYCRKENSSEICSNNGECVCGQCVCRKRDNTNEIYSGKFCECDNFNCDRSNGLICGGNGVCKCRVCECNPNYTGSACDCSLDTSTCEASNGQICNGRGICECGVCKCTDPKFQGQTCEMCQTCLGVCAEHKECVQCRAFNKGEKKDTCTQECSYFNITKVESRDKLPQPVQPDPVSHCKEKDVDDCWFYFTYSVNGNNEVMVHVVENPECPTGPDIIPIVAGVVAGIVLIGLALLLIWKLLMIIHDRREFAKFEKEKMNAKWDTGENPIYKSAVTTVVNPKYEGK
# Sequence (P13612 whole entry): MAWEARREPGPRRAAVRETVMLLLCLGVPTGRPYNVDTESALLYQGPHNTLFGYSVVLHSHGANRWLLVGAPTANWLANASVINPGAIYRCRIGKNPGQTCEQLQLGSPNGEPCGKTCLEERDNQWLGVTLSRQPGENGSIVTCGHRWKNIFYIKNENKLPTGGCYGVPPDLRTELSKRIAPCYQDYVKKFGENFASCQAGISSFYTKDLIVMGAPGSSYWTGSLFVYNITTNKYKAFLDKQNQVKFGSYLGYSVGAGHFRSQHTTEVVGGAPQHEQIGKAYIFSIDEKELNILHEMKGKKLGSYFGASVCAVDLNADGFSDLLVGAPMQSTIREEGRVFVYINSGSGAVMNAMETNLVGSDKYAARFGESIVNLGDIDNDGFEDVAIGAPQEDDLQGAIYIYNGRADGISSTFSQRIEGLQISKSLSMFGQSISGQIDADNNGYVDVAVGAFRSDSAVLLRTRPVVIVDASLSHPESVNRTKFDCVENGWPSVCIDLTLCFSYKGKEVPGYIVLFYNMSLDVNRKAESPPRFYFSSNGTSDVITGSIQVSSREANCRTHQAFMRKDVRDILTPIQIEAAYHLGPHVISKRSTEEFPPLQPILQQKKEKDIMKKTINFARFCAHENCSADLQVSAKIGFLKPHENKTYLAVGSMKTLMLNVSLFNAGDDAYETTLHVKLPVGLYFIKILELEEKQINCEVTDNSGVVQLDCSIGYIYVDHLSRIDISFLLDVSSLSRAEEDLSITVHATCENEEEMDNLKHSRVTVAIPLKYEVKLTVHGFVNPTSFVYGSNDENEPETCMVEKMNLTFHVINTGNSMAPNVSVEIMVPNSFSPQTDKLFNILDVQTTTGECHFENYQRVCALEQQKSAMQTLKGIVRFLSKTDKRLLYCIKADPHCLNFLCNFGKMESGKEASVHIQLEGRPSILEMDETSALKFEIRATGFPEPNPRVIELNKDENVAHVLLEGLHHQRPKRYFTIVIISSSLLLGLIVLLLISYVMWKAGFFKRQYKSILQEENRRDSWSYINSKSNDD
# ASSAY PROTOCOL: In vitro inhibition of binding of integrin alpha4-beta1 to immobilized VCAM-1 expressed on endothelial cell surface.
pIC50: −log10 of the molar value.
MEASURED PARAMETER: pIC50

Here is how some compounds turned out for pIC50.
> print(dat)
                                   compound  measured.parameter  readout.value
1  O=C(Nc1ccc(C[C@H](NC(=O)C2C3CCC(CC3)N2S(=O)(=O)c2ccc(Cl)s2)C(=O)O)cc1)c1cc(Cl)nc(Cl)c1 (some centres undefined)               pIC50           7.96
2  CC(=O)N1CSC[C@@H]1C(=O)N[C@@H](Cc1ccc(OCc2c(Cl)cccc2Cl)cc1)C(=O)O               pIC50           6.39

[1] O=C(Nc1ccc(C[C@H](NC(=O)[C@@H]2C3CCC(CC3)N2S(=O)(=O)c2ccccc2)C(=O)O)cc1)c1c(Cl)cccc1Cl
[2] O=C(Nc1ccc(C[C@H](NC(=O)[C@@H]2C3CCC(CC3)N2S(=O)(=O)c2cccc3cccnc23)C(=O)O)cc1)c1cc(Cl)nc(Cl)c1
API: POST /compare with 1 and 2 ; response names the item with higher pIC50. Bench note: the answer is the label of the chosen record.
1
(1: 7.72, 2: 6.82)
